B1: Pistol ribozyme (parent)
chain: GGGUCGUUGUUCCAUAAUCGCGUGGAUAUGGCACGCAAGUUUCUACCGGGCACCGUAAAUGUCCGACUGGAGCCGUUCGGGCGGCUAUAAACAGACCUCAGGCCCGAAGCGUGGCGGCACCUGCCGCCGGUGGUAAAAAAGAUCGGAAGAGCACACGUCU

# Variants of: B1
# procedureText: aptazyme ON/OFF ratio, guanine; higher = stronger switching; co-transcriptional cleavage with and without guanine
measuredAttribute: aptazyme ON/OFF ratio

# variantString, measuredValue
rows = [
    ("U7A U8G G9U U10G U11C C12G", 1.16),
    ("U7A U8G G9A U10C C13U", 1.25),
    ("U7A U8A G9C U11A C12A", 1.22),
    ("U7C U8A G9U U10C C13U", 1.8),
    ("U7C U8C G9U C12G", 1.29),
    ("U7A U8A U10G U11C", 1.03),
    ("U7C U8G G9U U10A U11A C12U C13G", 1.08),
    ("U11A C12U C13U", 1.45),
    ("U7C U8A G9C U10G U11G C13U", 1.14),
    ("U8C G9C U10G U11C C13A", 1.3),
    ("U7C U8A G9C U10C U11G C13A", 1.1),
    ("U7A U8C G9A U10C U11G C13A", 1.33),
    ("U8A G9U U10G C12U C13A", 1.31),
    ("U7G U8A U10A U11G", 2.46),
    ("U7A U8G G9C C13A", 1.47),
    ("U7A G9A U10A", 1.52),
    ("U8G G9C U10C U11C C13U", 1.03),
    ("U7A U8A U10G C12A", 1.33),
    ("U7A U8G G9C U11A C12U", 1.53),
    ("U8C G9C U10A U11C", 1.05),
    ("U7G U8C G9U U10C C12U C13A", 1.35),
    ("U7A U8A U10A U11G C12G C13A", 0.986),
    ("G9U U10A U11G C12G C13A", 1.1),
    ("U7C U8C U10G U11C C12U", 1.22),
    ("U7C U8C G9A U10C U11A", 1.8),
    ("U7C U8G G9A U10C U11C C12G C13A", 1.13),
    ("U7G U8G G9A U11G C12U", 1.5),
    ("U7C U8C G9C U10C U11G C12A C13A", 1.08),
    ("U7C U8C U10G U11G C12U C13G", 1.12),
    ("U7A U8A C13U", 1.69),
    ("U7C U8A G9U U10A U11C", 1.05),
    ("U8G G9U U10G C12G C13U", 1.02),
    ("U8C G9U U10G U11C C12A C13U", 1.52),
    ("U7G U8A G9C U10C U11C C12A C13G", 1),
    ("U7G U8A G9A U10G U11A C12U C13U", 1.09),
    ("U7A U8C C12A C13U", 1.24),
    ("U7A U8G U10C U11C C12U C13A", 1.45),
    ("U7C U8A G9A U10G C13G", 1.08),
    ("U8A U10A C12A", 1.11),
    ("U7A U8G G9U U11G C12G", 1.56),
    ("U7C U8C G9C U10G U11G C12G C13G", 1.09),
    ("U7C G9C U10A U11A C12G", 1.09),
    ("U7C G9U U10C C12G C13U", 1.07),
    ("U7C U8A G9C U10A C12U C13U", 1.06),
    ("U8C G9U U10C U11G C12G C13U", 1.07),
    ("U7G U8C U10C U11A C13G", 1.07),
    ("U8A G9C U10G U11G", 1.07),
    ("U7G U8C G9C U10A C12U C13G", 1.01),
    ("U7G U8C G9C U10A C12A C13G", 1.08),
    ("U7G U8C G9A U10A U11A C13U", 1.21),
    ("U7C U8C G9U U10C U11A C12A C13A", 1.17),
    ("U8A U10A U11G C12A C13A", 1.13),
    ("U7C U8A G9C U10A U11C C12U", 1.08),
    ("U7C G9U U10A U11A C13U", 1.25),
    ("U7A U8G G9A U10A U11C C12U C13A", 1.15),
    ("U8G U10A U11G C13G", 1.04),
    ("U7C U8G G9C U10A U11C C12A C13A", 1.19),
    ("U7G U8C G9U U10C U11C C13G", 1.08),
    ("U7A U8G G9C U10A C12U C13A", 1.31),
    ("U7A U8G G9C U10C U11C C12A C13U", 1.04),
    ("U7G U8A G9C U10C U11G C12A C13U", 1.01),
    ("U7A G9C C12U C13G", 1.07),
    ("U7C U8G G9A U11A C12U C13U", 1.15),
    ("U8A G9A U10C U11G C12A C13G", 1.23),
]
